IC50 for assorted binders
- Tested target: T1, human IgEλ (U266 derived) (human, UniProt P01854 1-546)
- T1 construct: mature; full-length IgE purified from U266 cells (Ikeyama et al. 1986); labelled with europium cryptate in the HTRF assays; also called human IgE (U266-derived)
- T1 sequence (P01854 whole entry): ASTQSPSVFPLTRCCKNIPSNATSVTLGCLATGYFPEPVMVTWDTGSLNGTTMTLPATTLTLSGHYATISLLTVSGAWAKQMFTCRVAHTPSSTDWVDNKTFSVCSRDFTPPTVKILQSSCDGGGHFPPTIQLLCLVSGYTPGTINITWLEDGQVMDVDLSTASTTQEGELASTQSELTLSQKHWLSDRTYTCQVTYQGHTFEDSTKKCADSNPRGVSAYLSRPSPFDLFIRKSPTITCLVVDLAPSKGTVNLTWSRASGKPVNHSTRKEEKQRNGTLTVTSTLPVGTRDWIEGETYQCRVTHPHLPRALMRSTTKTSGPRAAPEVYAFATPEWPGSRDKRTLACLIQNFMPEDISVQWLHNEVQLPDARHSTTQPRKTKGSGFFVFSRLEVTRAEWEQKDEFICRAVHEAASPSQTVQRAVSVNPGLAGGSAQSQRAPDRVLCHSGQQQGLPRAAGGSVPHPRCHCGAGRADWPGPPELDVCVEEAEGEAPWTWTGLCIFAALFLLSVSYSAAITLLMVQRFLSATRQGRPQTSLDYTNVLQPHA
- Method notes: HTRF receptor-ligand competition, scFv titrated; Eu-cryptate human IgE (U266) binding to human FcεRI-Fc; geomean
Dear colleague, please send the value followed by its unit.

Solved entries (count: 5):
| Binder | Assay result |
| --- | --- |
| Antibody 34 (scFv) (scFv, V domains shown, purified scFv) VH: EVQLLESGGGLVQPGGSLRLSCAAPGFTLSSYAMSWVRQAPGKGLEWVSAISGGSGGRTYYADSVKGRFTISRDNSKNTLYLQMNSLRAEDTAVYYCARHIAVAGTRGFDYWGRGTLVTVSS VL: SYVLTQPPSVSASPGQTASITCSGDKLGDTYASWYRQRSGQSPVLVIYQDDKRPPGIPERFSGSNSGNTATLTIRGTHTMDEADYYCLAWDTRTSGAVFGGGTKLSVL | 3 nM |
| Antibody 36 (scFv) (scFv, V domains shown, purified scFv) VH: EVQLLESGGGLVQPGGSLRLSCAASGFTFSSYAMSWVRQAPGKGLEWVSAISGSGGRTYYADSVKGRFTISRDNSKNTLYLQMNSLRAEDTAVYYCARHIAVAGTRGFDYWGRGTLVTVSS VL: SFMLSQPPSVSVSPGQTASITCSGDKLGDTYASWYRQRSGQSPVLVIYQDDKRPSGIPERFSGSNSGNTATLTISGTHTMDEADYYCLAWDTRTSGAVFGGGTKLTVL | 8 nM |
| Antibody 33 (scFv) (scFv, V domains shown, purified scFv) VH: EVQLLESGGGLVQPGGSLSLSCAAPGFTFSSYAMSWVRQAPGKGLEWVSAISGGSGGRTYYADSVKGRFTISKDNSKNTLYLQMNSLRAEDTAVYYCARHIAVAGTRGFDYWGRGTLVTVSS VL: SYVLTQPPSVSVSPGQTASITCSGDKLGDTYASWYRQRSGLSPALVIYQDDKRPSGIPERFSGSNSGNTATLTISGTHTMDEADYYCLAWDTRTSGAVFGGGTKLTVL | 14 nM |
| Antibody 12 (scFv) (scFv, V domains shown, purified scFv) VH: EVQLLESGGGLVQPGGSLRLSCAASGFTFSSYAMSWVRQAPGKGLEWVSAISGSGGRTYYADSVKGRFTISRDNSKNTLYLQMNSLRAEDTAVYYCARHIAVAGTRGFDYWGRGTLVTVSS VL: SFMLSQPPSVSVSPGQTASITCSGDKLGDTYASWYRQRSGQSPVLVIYQDDKRPSGIPERFSGSNSGNTATLTISGTHTMDEADYYCLAWDTRTSGAVFGGGTKLTVL | 8 nM |
| Antibody 9 (scFv) (scFv, V domains shown, purified scFv) VH: EVQLLESGGGLVQPGGSLRLSCAASGFTFSSYAMSWVRQAPGKGLEWVSAISGGSGGRTYYADSVKGRFTISRDNSKNTLYLQMNSLRAEDTAVYYCARHIAVAGTRGFDYWGRGTLVTVSS VL: SFVLSQPPSVSVSPGQTASITCSGDKLGDTYASWYRQRSGQSPVLVIYQDDKRPSGIPERFSGSNSGNTATLTISGTHTMDEADYYCLAWDTRTSGAVFGGGTKLTVL | 6 nM |

Exam item: IC50 for Antibody 15 (scFv) (scFv, V domains shown, purified scFv) VH: EVQLLESGGGLVQPGGSLRLSCAAPGFTFSSYAMSWVRQAPGKGLEWVSAISGGSGGRTYYADSVKGRFTISRDNSKNTLYLQMNSLRAEDTAVYYCARHIAVAGTRGFDYWGRGTLVTVSS VL: SYVLTQPPSVSVSPGQTASITCSGDKLGDTYASWYRQRSGQSPVLVIYQDDRRPSGIPERFSGSNSGNTATLTISGTHTMDEADYYCLAWDTRTSGAVFGGGTKLTVL ?
Marked response: 4 nM
